System: hiPSC-CMs (iCell-Cardiomyocytes^2)
CONDITION: 3 µM; 48h
QUANTITY: Beating below threshold, number of observations/total well numbers

>>> observed_result("CC(C)(Sc1cc(C(C)(C)C)c(O)c(C(C)(C)C)c1)Sc1cc(C(C)(C)C)c(O)c(C(C)(C)C)c1")
"0/5"
>>> observed_result("N=C(N)c1ccc(OCCCCCOc2ccc(C(=N)N)cc2)cc1")
"0/6"
>>> observed_result("COc1cccc2c1C(=O)c1c(O)c3c(c(O)c1C2=O)C[C@@](O)(C(=O)CO)C[C@@H]3O[C@H]1C[C@H](N)[C@H](O)[C@H](C)O1")
"0/5"
>>> observed_result("COc1cc2c(Nc3ccc(Br)cc3F)ncnc2cc1OCC1CCN(C)CC1")
"1/5"
>>> observed_result("C#Cc1cccc(Nc2ncnc3cc(OCCOC)c(OCCOC)cc23)c1")
"0/5"
>>> observed_result("COc1nc(N)nc2c1ncn2[C@@H]1O[C@H](COP(=O)(N[C@@H](C)C(=O)OCC(C)(C)C)Oc2cccc3ccccc23)[C@@H](O)[C@@]1(C)O (stereo partly drawn)")
"0/5"

* * *

Test system: hiPSC-CMs (iCell-Cardiomyocytes^2)
CONDITION: 3 µM; 2h
Protocol: Cells were seeded according to the instructions of the cell provider, in fibronectin-coated 48-well MEA plates (Axion Cytoview Plates, M768-tMEA-48B) at a density suited to form a monolayer (i.e., 50 K/well) and maintained in culture in a stage incubator (37°C, 5% CO2). […] The potential presence of various arrhythmic events was evaluated and noted during the data analysis. […]
QUANTITY: BR (beating rate), % change from baseline (%)

>>> observed_result("CC1(C)S[C@@H]2[C@H](NC(=O)[C@H](N)c3ccc(O)cc3)C(=O)N2[C@H]1C(=O)O [Amoxicillin]")
8
>>> observed_result("COc1cccc2c1C(=O)c1c(O)c3c(c(O)c1C2=O)C[C@@](O)(C(=O)CO)C[C@@H]3O[C@H]1C[C@H](N)[C@H](O)[C@H](C)O1 [Doxorubicin]")
1
>>> observed_result("N=C(N)c1ccc(OCCCCCOc2ccc(C(=N)N)cc2)cc1 [Pentamidine]")
-2
>>> observed_result("CC(=O)Oc1ccccc1C(=O)O [Aspirin]")
2
>>> observed_result("O=C(O)COCCN1CCN(C(c2ccccc2)c2ccc(Cl)cc2)CC1 (stereo not drawn) [Cetirizine]")
3
>>> observed_result("CC(C)(Sc1cc(C(C)(C)C)c(O)c(C(C)(C)C)c1)Sc1cc(C(C)(C)C)c(O)c(C(C)(C)C)c1 [Probucol]")
2
>>> observed_result("COc1nc(N)nc2c1ncn2[C@@H]1O[C@H](COP(=O)(N[C@@H](C)C(=O)OCC(C)(C)C)Oc2cccc3ccccc23)[C@@H](O)[C@@]1(C)O (stereo partly drawn) [BMS-986094]")
7
>>> observed_result("COc1cc2c(Nc3ccc(Br)cc3F)ncnc2cc1OCC1CCN(C)CC1 [Vandetanib]")
-58
>>> observed_result("C[C@H](CS)C(=O)N1CCC[C@H]1C(=O)O [Captopril]")
2

* * *

System: hiPSC-CMs (iCell-Cardiomyocytes^2)
CONDITION: 10 µM; 48h
QUANTITY: FPD (field-potential duration), % change from baseline (%)

>>> observed_result("C#Cc1cccc(Nc2ncnc3cc(OCCOC)c(OCCOC)cc23)c1 [Erlotinib]")
15.4
>>> observed_result("C[C@H](CS)C(=O)N1CCC[C@H]1C(=O)O [Captopril]")
13.1
>>> observed_result("CC(=O)Oc1ccccc1C(=O)O [Aspirin]")
12.2

* * *

We begin with a simple list: items and their reported Cessation of beating, number of observations/total well numbers.
Test system: hiPSC-CMs (iCell-Cardiomyocytes^2)
CONDITION: 1 µM, 48h
QUANTITY: Cessation of beating, number of observations/total well numbers

>>> observed_result("COc1nc(N)nc2c1ncn2[C@@H]1O[C@H](COP(=O)(N[C@@H](C)C(=O)OCC(C)(C)C)Oc2cccc3ccccc23)[C@@H](O)[C@@]1(C)O (stereo partly drawn)")
"0/5"
>>> observed_result("Cc1cn(-c2cc(NC(=O)c3ccc(C)c(Nc4nccc(-c5cccnc5)n4)c3)cc(C(F)(F)F)c2)cn1")
"0/5"
>>> observed_result("C#Cc1cccc(Nc2ncnc3cc(OCCOC)c(OCCOC)cc23)c1")
"0/5"

* * *

We begin with a simple list: items and their reported BR (beating rate), % change from baseline.
Tested on: hiPSC-CMs (iCell-Cardiomyocytes^2)
CONDITION: 1 µM, 48h
QUANTITY: BR (beating rate), % change from baseline

>>> observed_result("N=C(N)c1ccc(OCCCCCOc2ccc(C(=N)N)cc2)cc1 [Pentamidine]")
"-16±3 %"
>>> observed_result("CCN(CC)CCNC(=O)c1c(C)[nH]c(/C=C2\\C(=O)Nc3ccc(F)cc32)c1C [Sunitinib]")
"-68±4 %"
>>> observed_result("COc1nc(N)nc2c1ncn2[C@@H]1O[C@H](COP(=O)(N[C@@H](C)C(=O)OCC(C)(C)C)Oc2cccc3ccccc23)[C@@H](O)[C@@]1(C)O (some centres unmarked) [BMS-986094]")
"12±3%"
>>> observed_result("CC1(C)S[C@@H]2[C@H](NC(=O)[C@H](N)c3ccc(O)cc3)C(=O)N2[C@H]1C(=O)O [Amoxicillin]")
"3±2%"
>>> observed_result("CC(C)(Sc1cc(C(C)(C)C)c(O)c(C(C)(C)C)c1)Sc1cc(C(C)(C)C)c(O)c(C(C)(C)C)c1 [Probucol]")
"0±2%"
>>> observed_result("O=C(O)COCCN1CCN(C(c2ccccc2)c2ccc(Cl)cc2)CC1 (centres unmarked) [Cetirizine]")
"-4±4%"
>>> observed_result("C[C@H](CS)C(=O)N1CCC[C@H]1C(=O)O [Captopril]")
"-7±4%"
>>> observed_result("COc1cc2c(Nc3ccc(Br)cc3F)ncnc2cc1OCC1CCN(C)CC1 [Vandetanib]")
"-65±2 %"

* * *

Tested on: hiPSC-CMs (iCell-Cardiomyocytes^2)
CONDITION: 1 µM, 96h
We begin with a simple list: items and their reported EAD, number of observations/total well numbers.
QUANTITY: EAD, number of observations/total well numbers

>>> observed_result("N=C(N)c1ccc(OCCCCCOc2ccc(C(=N)N)cc2)cc1")
"0/6"
>>> observed_result("COc1nc(N)nc2c1ncn2[C@@H]1O[C@H](COP(=O)(N[C@@H](C)C(=O)OCC(C)(C)C)Oc2cccc3ccccc23)[C@@H](O)[C@@]1(C)O (stereo partly shown)")
"0/5"
>>> observed_result("Cc1cn(-c2cc(NC(=O)c3ccc(C)c(Nc4nccc(-c5cccnc5)n4)c3)cc(C(F)(F)F)c2)cn1")
"1/5"
>>> observed_result("CC(C)(Sc1cc(C(C)(C)C)c(O)c(C(C)(C)C)c1)Sc1cc(C(C)(C)C)c(O)c(C(C)(C)C)c1")
"0/4"

* * *

We begin with a simple list: items and their reported BR (beating rate), % change from baseline.
Test system: hiPSC-CMs (iCell-Cardiomyocytes^2)
CONDITION: 10 µM; 48h
QUANTITY: BR (beating rate), % change from baseline (%)

>>> observed_result("C[C@H](CS)C(=O)N1CCC[C@H]1C(=O)O [Captopril]")
-7
>>> observed_result("COc1nc(N)nc2c1ncn2[C@@H]1O[C@H](COP(=O)(N[C@@H](C)C(=O)OCC(C)(C)C)Oc2cccc3ccccc23)[C@@H](O)[C@@]1(C)O (some centres unmarked) [BMS-986094]")
24
>>> observed_result("CC(C)(Sc1cc(C(C)(C)C)c(O)c(C(C)(C)C)c1)Sc1cc(C(C)(C)C)c(O)c(C(C)(C)C)c1 [Probucol]")
17
>>> observed_result("CC(=O)Oc1ccccc1C(=O)O [Aspirin]")
-8
>>> observed_result("CC1(C)S[C@@H]2[C@H](NC(=O)[C@H](N)c3ccc(O)cc3)C(=O)N2[C@H]1C(=O)O [Amoxicillin]")
3

* * *

Tested on: hiPSC-CMs (iCell-Cardiomyocytes^2)
CONDITION: 1 µM, 72h
We begin with a simple list: items and their reported FPDc (field-potential duration corrected by beat-rate), % change from baseline.
QUANTITY: FPDc (field-potential duration corrected by beat-rate), % change from baseline (%)

>>> observed_result("Cc1cn(-c2cc(NC(=O)c3ccc(C)c(Nc4nccc(-c5cccnc5)n4)c3)cc(C(F)(F)F)c2)cn1 [Nilotinib]")
196.4
>>> observed_result("N=C(N)c1ccc(OCCCCCOc2ccc(C(=N)N)cc2)cc1 [Pentamidine]")
37.5
>>> observed_result("C#Cc1cccc(Nc2ncnc3cc(OCCOC)c(OCCOC)cc23)c1 [Erlotinib]")
11
>>> observed_result("O=C(O)COCCN1CCN(C(c2ccccc2)c2ccc(Cl)cc2)CC1 (centres unmarked) [Cetirizine]")
15.4
>>> observed_result("C[C@H](CS)C(=O)N1CCC[C@H]1C(=O)O [Captopril]")
11.9
>>> observed_result("CC1(C)S[C@@H]2[C@H](NC(=O)[C@H](N)c3ccc(O)cc3)C(=O)N2[C@H]1C(=O)O [Amoxicillin]")
7
>>> observed_result("CC(C)(Sc1cc(C(C)(C)C)c(O)c(C(C)(C)C)c1)Sc1cc(C(C)(C)C)c(O)c(C(C)(C)C)c1 [Probucol]")
8.8
>>> observed_result("COc1nc(N)nc2c1ncn2[C@@H]1O[C@H](COP(=O)(N[C@@H](C)C(=O)OCC(C)(C)C)Oc2cccc3ccccc23)[C@@H](O)[C@@]1(C)O (some centres unmarked) [BMS-986094]")
-2.3
